System: Hepa 1-6
Method: Cytotoxicity against mouse Hepa1-6 cells assessed as reduction in cell viability incubated for 48 hrs by MTT assay
Assay type: functional, cell-based
Condition summary: Hepa1-6, 48 h
Test readout: IC50 (µM)
Answer with a number only, understood to be in µM.

Entry C/C=C/[C@@H]1[C@H]2C[C@@H](C)CC[C@@H]2C(C)=C[C@H]1C(=O)c1c(O)c(-c2ccc(O)cc2)c[nH]c1=O [ILICICOLIN H] — recorded IC50 = 19.6

----------
# IC50 per record follows
Tested on: MDA-MB-231
Method: Cytotoxicity against human MDA-MB-231 cells assessed as reduction in cell viability incubated for 48 hrs by MTT assay
Type: functional, cell-based
Condition summary: MDA-MB-231, 48 h
Answer with a number only, understood to be in µM.

Example entries and their recorded answers appear below.
Chemical structure: C/C=C/[C@@H]1Oc2c(-c3ccccc3)cn(O)c(=O)c2[C@@H]2[C@H]1CCC[C@H]2C
Test readout: IC50
Reported: 20.1

Chemical structure: CC[C@H](C)C[C@@H](C)/C=C(\C)[C@@H]1O[C@H](c2c(O)c(-c3ccccc3)c[nH]c2=O)CC[C@H]1C
Test readout: IC50
Reported: 5

Chemical structure: C/C=C/[C@@H]1[C@H]2C[C@@H](C)CC[C@@H]2C(C)=C[C@H]1C(=O)c1c(O)c(-c2ccc(O)cc2)c[nH]c1=O
Test readout: IC50
Reported: 9.98

Entry CC[C@H](C)C[C@@H](C)/C=C(\C)[C@@H]1O[C@H](c2c(O)c(-c3ccc(O)cc3)cn(C)c2=O)CC=C1C — recorded IC50 = 43.1

Entry CC[C@H](C)C[C@@H](C)/C=C(\C)[C@@H]1O[C@H](c2c(O)c(-c3ccccc3)cn(C)c2=O)CC[C@H]1C — recorded IC50 = 7.84

Entry CC[C@H](C)C[C@@H](C)/C=C(\C)[C@@H]1O[C@H](c2c(O)c(-c3ccccc3O)cn(C)c2=O)CC[C@H]1C — recorded IC50 = 12.7

----------
Tested on: PC-3
Method: Cytotoxicity against human PC-3 cells assessed as reduction in cell viability incubated for 48 hrs by MTT assay
Type: functional, cell-based
Condition summary: PC-3, 48 h
# pIC50 per record follows
Please keep in mind that pIC50 is minus log10 of the molar concentration; only the number is needed.

Chemical structure: CC[C@H](C)C[C@@H](C)/C=C(\C)[C@@H]1O[C@H](c2c(O)c(-c3ccc(O)cc3)cn(C)c2=O)CC[C@H]1C
pIC50: 4.37
//
Chemical structure: CC[C@H](C)C[C@@H](C)/C=C(\C)[C@@H]1O[C@H](c2c(O)c(-c3ccccc3)c[nH]c2=O)CC[C@H]1C
pIC50: 4.94
//
Chemical structure: C/C=C/[C@@H]1Oc2c(-c3ccccc3)c[nH]c(=O)c2[C@@H]2[C@H]1CCC[C@H]2C
pIC50: 4.44
//
Chemical structure: CC[C@H](C)C[C@@H](C)/C=C(\C)[C@@H]1O[C@H](c2c(O)c(-c3ccccc3O)cn(C)c2=O)CC[C@H]1C
pIC50: 4.73
//
Chemical structure: CC[C@H](C)C[C@@H](C)/C=C(\C)[C@H]1O[C@@H](c2c(O)c(-c3ccccc3)c[nH]c2=O)CC=C1C
pIC50: 5.66
//
Chemical structure: C/C=C/[C@@H]1Oc2c(-c3ccccc3)cn(O)c(=O)c2[C@@H]2[C@H]1CCC[C@H]2C
pIC50: 4.31
//
Chemical structure: CC[C@H](C)C[C@@H](C)/C=C(\C)[C@@H]1O[C@H](c2c(O)c(-c3ccccc3)cn(C)c2=O)CC[C@H]1C
pIC50: 4.79
//
Chemical structure: CC[C@H](C)C[C@@H](C)/C=C(\C)[C@@H]1O[C@H](c2c(O)c(-c3ccc(O)cc3)cn(C)c2=O)CC[C@]1(C)O
pIC50: 5.09

Would you kindly look at the next entry?
Entry CC[C@H](C)C[C@@H](C)/C=C(\C)[C@@H]1O[C@H](c2c(O)c(-c3ccc(O)cc3)c[nH]c2=O)CC[C@H]1C — recorded pIC50 = 5.18
